molecular target: Platelet-derived growth factor receptor alpha (Homo sapiens) (UniProt P16234); conditions: at 10 µM
Sequence (P16234 whole entry): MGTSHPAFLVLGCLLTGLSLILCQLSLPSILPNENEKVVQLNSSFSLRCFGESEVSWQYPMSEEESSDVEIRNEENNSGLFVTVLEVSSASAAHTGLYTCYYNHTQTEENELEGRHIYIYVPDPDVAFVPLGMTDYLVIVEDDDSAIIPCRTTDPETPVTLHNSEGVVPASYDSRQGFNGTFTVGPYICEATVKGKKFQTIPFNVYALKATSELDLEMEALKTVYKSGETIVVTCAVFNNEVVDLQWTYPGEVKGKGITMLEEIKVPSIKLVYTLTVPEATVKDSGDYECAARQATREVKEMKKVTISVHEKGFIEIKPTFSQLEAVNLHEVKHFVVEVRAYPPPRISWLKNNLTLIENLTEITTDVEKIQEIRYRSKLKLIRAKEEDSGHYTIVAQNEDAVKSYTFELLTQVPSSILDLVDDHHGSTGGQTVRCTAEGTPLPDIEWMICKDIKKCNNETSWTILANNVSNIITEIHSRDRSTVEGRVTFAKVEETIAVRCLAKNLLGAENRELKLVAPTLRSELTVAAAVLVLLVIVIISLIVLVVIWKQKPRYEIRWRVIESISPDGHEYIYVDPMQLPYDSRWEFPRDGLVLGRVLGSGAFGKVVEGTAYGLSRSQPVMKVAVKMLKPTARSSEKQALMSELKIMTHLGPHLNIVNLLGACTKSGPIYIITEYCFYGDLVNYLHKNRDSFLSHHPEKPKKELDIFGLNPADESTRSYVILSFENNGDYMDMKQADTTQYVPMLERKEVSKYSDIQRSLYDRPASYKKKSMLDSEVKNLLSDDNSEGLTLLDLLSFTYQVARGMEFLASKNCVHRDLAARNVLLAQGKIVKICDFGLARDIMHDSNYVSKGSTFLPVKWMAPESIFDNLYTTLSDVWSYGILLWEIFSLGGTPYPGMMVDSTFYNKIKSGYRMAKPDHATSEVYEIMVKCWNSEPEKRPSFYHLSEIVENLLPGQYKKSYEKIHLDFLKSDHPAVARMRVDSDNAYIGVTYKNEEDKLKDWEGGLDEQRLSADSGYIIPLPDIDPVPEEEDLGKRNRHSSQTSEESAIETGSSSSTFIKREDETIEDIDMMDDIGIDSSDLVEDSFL
Catalogue of compounds with associated residual activity
recorded_endpoint: residual activity

structure_smiles: CO[C@@H]1[C@H](N(C)C(=O)c2ccccc2)C[C@H]2O[C@]1(C)n1c3ccccc3c3c4c(c5c6ccccc6n2c5c31)C(=O)NC4
recorded_endpoint: residual activity
measured: 32%

structure_smiles: Ic1cccc(CSc2nnc(-c3ccncc3)o2)c1
recorded_endpoint: residual activity
measured: 97%

structure_smiles: N#C/C(=C(\N)Sc1ccc(N)cc1)c1ccccc1C(F)(F)F
recorded_endpoint: residual activity
measured: 113%

structure_smiles: O=C(Nc1cccc(Nc2cc(Nc3cccc(C(F)(F)F)c3)ncn2)c1)C1CC1
recorded_endpoint: residual activity
measured: 109%

structure_smiles: COc1cc2ncnc(Nc3ccc(Oc4ccccc4)cc3)c2cc1OC
recorded_endpoint: residual activity
measured: 42%

structure_smiles: CCOc1cc2ncnc(Nc3cccc(Br)c3)c2cc1OCC
recorded_endpoint: residual activity
measured: 90%

structure_smiles: COc1ccc(C(=O)Nc2sc3c(c2C(N)=O)CCCC3)cc1OC
recorded_endpoint: residual activity
measured: 86%

structure_smiles: CN(C)CCCn1cc(C2=C(c3c[nH]c4ccccc34)C(=O)NC2=O)c2ccccc21
recorded_endpoint: residual activity
measured: 78%

structure_smiles: Cc1ccc(S(=O)(=O)/C=C/C#N)cc1
recorded_endpoint: residual activity
measured: 109%

structure_smiles: CO[C@H]1C[C@@H]2CC[C@@H](C)[C@@](O)(O2)C(=O)C(=O)N2CCCC[C@H]2C(=O)O[C@H]([C@H](C)C[C@@H]2CC[C@@H](O)[C@H](OC)C2)CC(=O)[C@H](C)/C=C(\C)[C@@H](O)[C@@H](OC)C(=O)[C@H](C)C[C@H](C)/C=C/C=C/C=C/1C
recorded_endpoint: residual activity
measured: 102%

* * *

biological target: Serine/threonine-protein kinase TBK1 (Homo sapiens); details: at 10 µM
Decision: residual activity beneath 60% gives Y; residual activity meeting or exceeding 60% gives N.

compound: CC(=O)c1ccc(N2CCOCC2)cc1O
label_value: N

compound: CNc1cc2c(Nc3cccc(Br)c3)ncnc2cn1
label_value: N

compound: O=C1Nc2cc(Br)ccc2/C1=C1/Nc2ccccc2/C1=N\O
label_value: Y

compound: O=C1NC(=O)c2c1c1c3ccccc3[nH]c1c1[nH]c3cc(Br)ccc3c21
label_value: Y

compound: CCOc1cc2ncnc(Nc3cccc(Br)c3)c2cc1OCC
label_value: Y

compound: O=C(Nc1cccc(Nc2nccc(Nc3cccc(C(F)(F)F)c3)n2)c1)C1CC1
label_value: Y

compound: Cn1nc2c3c(cccc31)C(=O)c1ccccc1-2
label_value: Y

compound: c1ccc2c(-c3ccncc3)c[nH]c2c1
label_value: Y

compound: c1ccc(-c2n[nH]c3c2oc2ccccc23)cc1
label_value: Y

compound: O=c1c2ccccc2[nH]c(=S)n1CCN1CCC(=C(c2ccc(F)cc2)c2ccc(F)cc2)CC1
label_value: N

compound: CC#CC(=O)Nc1cc2c(Nc3ccc(F)c(Cl)c3)ncnc2cn1
label_value: N

compound: N#CCCc1ccc2c(c1)-c1[nH]c3ccc([N+](=O)[O-])cc3c1CC(=O)N2
label_value: Y

compound: Nc1cccc(-c2cc3c(Oc4cccc(O)c4)ncnc3[nH]2)c1
label_value: Y

compound: COc1cc2ncnc(Nc3ccc(Oc4ccccc4)cc3)c2cc1OC
label_value: Y

compound: O=C1Nc2ccccc2/C1=C1/Nc2ccccc2/C1=N\OCCC(O)CO (centres undefined)
label_value: Y

compound: CN(C)CCCn1cc(C2=C(c3c[nH]c4ccccc34)C(=O)NC2=O)c2ccccc21
label_value: Y

compound: COc1ccc(CNc2nc(N(CCO)CCO)nc3c2ncn3C(C)C)cc1
label_value: Y

compound: Oc1c2ccccc2c2c3c(cccc13)N=N2
label_value: Y

compound: CCC(=O)Nc1ccc2ncnc(Nc3cccc(Br)c3)c2c1
label_value: N

compound: CC[n+]1c(/C=C/N(C)c2ccccc2)n(-c2ccccc2)c2ccc(-c3nc4ccccc4s3)cc21
label_value: N

compound: Cc1cncc2cccc(S(=O)(=O)N3CCCN(C(=O)CN)C[C@H]3C)c12
label_value: Y

compound: COc1ccc(S(=O)(=O)N(CCO)c2ccccc2CN(C)C/C=C/c2ccc(Cl)cc2)cc1
label_value: Y

compound: Nc1ccc2ncnc(NCCc3ccc(Oc4ccccc4)cc3)c2c1
label_value: N

* * *

target: Vascular endothelial growth factor receptor 2 (Homo sapiens) (UniProt P35968); settings: at 1 µM
Sequence (P35968 whole entry): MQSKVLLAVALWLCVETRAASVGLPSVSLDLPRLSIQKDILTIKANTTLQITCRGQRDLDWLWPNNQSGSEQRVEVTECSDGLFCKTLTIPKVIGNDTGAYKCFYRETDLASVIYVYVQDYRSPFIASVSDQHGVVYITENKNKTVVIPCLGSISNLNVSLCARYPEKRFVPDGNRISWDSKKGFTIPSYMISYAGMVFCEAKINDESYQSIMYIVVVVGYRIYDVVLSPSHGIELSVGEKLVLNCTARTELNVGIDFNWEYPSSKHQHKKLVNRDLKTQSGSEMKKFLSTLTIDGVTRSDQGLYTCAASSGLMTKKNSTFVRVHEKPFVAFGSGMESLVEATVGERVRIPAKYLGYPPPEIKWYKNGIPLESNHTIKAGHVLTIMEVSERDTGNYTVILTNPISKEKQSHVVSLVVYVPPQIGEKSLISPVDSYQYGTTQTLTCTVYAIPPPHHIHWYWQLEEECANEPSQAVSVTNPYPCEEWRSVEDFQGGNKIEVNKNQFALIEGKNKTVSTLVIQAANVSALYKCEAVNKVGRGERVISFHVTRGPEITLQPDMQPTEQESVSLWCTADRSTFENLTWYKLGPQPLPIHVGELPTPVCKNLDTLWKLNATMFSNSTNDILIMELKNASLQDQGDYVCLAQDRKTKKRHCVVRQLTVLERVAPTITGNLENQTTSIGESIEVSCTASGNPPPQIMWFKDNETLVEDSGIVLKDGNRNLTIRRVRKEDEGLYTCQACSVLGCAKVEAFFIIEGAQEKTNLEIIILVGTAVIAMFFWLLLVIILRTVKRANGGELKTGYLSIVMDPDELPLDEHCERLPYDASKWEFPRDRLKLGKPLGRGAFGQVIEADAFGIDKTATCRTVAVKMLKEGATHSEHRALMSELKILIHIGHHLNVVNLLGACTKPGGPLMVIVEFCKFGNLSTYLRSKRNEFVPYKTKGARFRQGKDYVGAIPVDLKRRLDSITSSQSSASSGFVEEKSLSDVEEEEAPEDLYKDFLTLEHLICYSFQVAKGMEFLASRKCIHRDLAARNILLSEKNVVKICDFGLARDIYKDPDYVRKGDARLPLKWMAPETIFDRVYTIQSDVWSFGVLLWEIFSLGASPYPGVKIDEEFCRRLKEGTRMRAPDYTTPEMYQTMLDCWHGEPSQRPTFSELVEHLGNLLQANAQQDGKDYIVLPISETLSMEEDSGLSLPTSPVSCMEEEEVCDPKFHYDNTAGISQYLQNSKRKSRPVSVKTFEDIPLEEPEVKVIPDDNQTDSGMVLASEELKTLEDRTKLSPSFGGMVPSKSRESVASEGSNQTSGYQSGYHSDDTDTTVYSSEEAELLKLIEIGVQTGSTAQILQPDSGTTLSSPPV
Catalogue of compounds with associated residual activity
recorded_endpoint: residual activity (%)

structure_smiles: COc1cc2ncnc(Nc3ccc(NC(=O)c4ccccc4)cc3)c2cc1OC
recorded_endpoint: residual activity
result_units: %
measured: 95

structure_smiles: CC#CC(=O)Nc1cc2c(Nc3ccc(F)c(Cl)c3)ncnc2cn1
recorded_endpoint: residual activity
result_units: %
measured: 107

structure_smiles: O=C(Nc1cccc(Nc2nccc(Nc3cccc(C(F)(F)F)c3)n2)c1)C1CC1
recorded_endpoint: residual activity
result_units: %
measured: 81

structure_smiles: Cn1nc2c3c(cccc31)C(=O)c1ccccc1-2
recorded_endpoint: residual activity
result_units: %
measured: 84

structure_smiles: COc1ccc(C(=O)Nc2sc3c(c2C(N)=O)CCCC3)cc1OC
recorded_endpoint: residual activity
result_units: %
measured: 71

structure_smiles: O=c1c2ccccc2[nH]c(=S)n1CCN1CCC(=C(c2ccc(F)cc2)c2ccc(F)cc2)CC1
recorded_endpoint: residual activity
result_units: %
measured: 103

structure_smiles: CO[C@@H]1[C@H](N(C)C(=O)c2ccccc2)C[C@H]2O[C@]1(C)n1c3ccccc3c3c4c(c5c6ccccc6n2c5c31)C(=O)NC4
recorded_endpoint: residual activity
result_units: %
measured: 3

structure_smiles: Cc1cccc(-c2[nH]c(C(C)(C)C)nc2-c2ccc3c(c2)OCO3)n1
recorded_endpoint: residual activity
result_units: %
measured: 101

structure_smiles: CCC(=O)Nc1ccc2ncnc(Nc3cccc(Br)c3)c2c1
recorded_endpoint: residual activity
result_units: %
measured: 95

structure_smiles: Cc1ccc(NC2=CC(=O)c3sc(C)nc3C2=O)cc1
recorded_endpoint: residual activity
result_units: %
measured: 97

structure_smiles: NC(=O)c1ccc2[nH]c(-c3ccc(Oc4ccc(Cl)cc4)cc3)nc2c1
recorded_endpoint: residual activity
result_units: %
measured: 84

structure_smiles: c1ccc(-c2n[nH]cc2-c2ccnc3ccccc23)nc1
recorded_endpoint: residual activity
result_units: %
measured: 57

structure_smiles: Oc1c2ccccc2c2c3c(cccc13)N=N2
recorded_endpoint: residual activity
result_units: %
measured: 17

structure_smiles: CN(C)c1ccc(/C=C2\C(=O)Nc3ccccc32)cc1
recorded_endpoint: residual activity
result_units: %
measured: 4

structure_smiles: CCN(CC)CCCCN1c2ccccc2Oc2ccc(Cl)cc21
recorded_endpoint: residual activity
result_units: %
measured: 112

structure_smiles: CCN(CC)C(=O)c1ccc(Nc2nc(OCC3CCCCC3)c3nc[nH]c3n2)cc1
recorded_endpoint: residual activity
result_units: %
measured: 33

structure_smiles: O=C1NC(=O)/C(=C\c2ccc3nccnc3c2)S1
recorded_endpoint: residual activity
result_units: %
measured: 87

structure_smiles: Ic1cccc(CSc2nnc(-c3ccncc3)o2)c1
recorded_endpoint: residual activity
result_units: %
measured: 77

structure_smiles: c1ccc(-c2n[nH]c3c2oc2ccccc23)cc1
recorded_endpoint: residual activity
result_units: %
measured: 5

structure_smiles: Oc1n[nH]c2nnc(-c3c(-c4ccccc4)nn4ccccc34)cc12
recorded_endpoint: residual activity
result_units: %
measured: 93

structure_smiles: Cc1nc(-c2ccccc2)c(-c2ccncc2)o1
recorded_endpoint: residual activity
result_units: %
measured: 95

structure_smiles: Nc1ccc2ncnc(NCCc3ccc(Oc4ccccc4)cc3)c2c1
recorded_endpoint: residual activity
result_units: %
measured: 79

structure_smiles: c1ccc2c(-c3ccncc3)c[nH]c2c1
recorded_endpoint: residual activity
result_units: %
measured: 100

structure_smiles: Cc1cc2ncc(-c3ccccc3)nc2cc1C
recorded_endpoint: residual activity
result_units: %
measured: 92

structure_smiles: COc1cc2ncnc(Nc3ccc(O)c(Br)c3)c2cc1OC
recorded_endpoint: residual activity
result_units: %
measured: 30

structure_smiles: CC(C)n1cnc2/c(=N/c3cccc(Cl)c3)nc(NCCO)[nH]c21
recorded_endpoint: residual activity
result_units: %
measured: 85

structure_smiles: Cc1ccc(S(=O)(=O)/C=C/C#N)cc1
recorded_endpoint: residual activity
result_units: %
measured: 101

* * *

target: Cyclin-dependent kinase 1/cyclin B1 (Homo sapiens) (UniProt P06493+P14635); conditions: at 10 µM
Sequence (P06493 whole entry, looked up): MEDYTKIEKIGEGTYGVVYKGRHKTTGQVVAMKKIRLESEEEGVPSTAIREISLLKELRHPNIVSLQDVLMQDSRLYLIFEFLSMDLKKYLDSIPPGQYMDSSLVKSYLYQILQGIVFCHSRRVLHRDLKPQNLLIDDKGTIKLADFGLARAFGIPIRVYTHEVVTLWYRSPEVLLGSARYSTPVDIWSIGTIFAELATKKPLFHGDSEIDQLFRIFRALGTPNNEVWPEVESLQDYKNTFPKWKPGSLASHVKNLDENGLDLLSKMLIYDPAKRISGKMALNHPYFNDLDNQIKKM
Sequence (P14635 whole entry, looked up): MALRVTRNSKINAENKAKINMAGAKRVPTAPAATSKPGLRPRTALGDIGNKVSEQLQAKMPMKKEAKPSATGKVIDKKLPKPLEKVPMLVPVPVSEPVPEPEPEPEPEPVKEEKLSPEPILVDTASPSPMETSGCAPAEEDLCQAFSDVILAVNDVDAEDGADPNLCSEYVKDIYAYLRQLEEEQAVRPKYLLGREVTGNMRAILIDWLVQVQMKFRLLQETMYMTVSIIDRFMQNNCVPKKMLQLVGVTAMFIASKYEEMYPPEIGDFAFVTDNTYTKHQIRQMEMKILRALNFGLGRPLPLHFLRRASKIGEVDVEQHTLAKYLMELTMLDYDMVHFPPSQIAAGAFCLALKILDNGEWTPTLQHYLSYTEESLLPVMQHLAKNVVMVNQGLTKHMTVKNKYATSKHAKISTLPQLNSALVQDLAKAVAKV
Use Satisfied when the recorded residual activity is no lower than 80%; use Not satisfied when it is lower.

molecule: Nc1cccc(-c2cc3c(Oc4cccc(O)c4)ncnc3[nH]2)c1
label_value: Not satisfied
//
molecule: COc1cccc(-c2cc(=O)c3ccccc3o2)c1N
label_value: Satisfied
//
molecule: CN(C)c1ccc(/C=C2\C(=O)Nc3ccccc32)cc1
label_value: Satisfied
//
molecule: Oc1c2ccccc2c2c3c(cccc13)N=N2
label_value: Not satisfied
//
molecule: Oc1n[nH]c2nnc(-c3c(-c4ccccc4)nn4ccccc34)cc12
label_value: Satisfied
//
molecule: O=C(Nc1cccc(Nc2cc(Nc3cccc(C(F)(F)F)c3)ncn2)c1)C1CC1
label_value: Satisfied
//
molecule: O=C1c2ccccc2-[n+]2ccc3c([nH]c4ccccc43)c21
label_value: Satisfied
//
molecule: NC(=O)c1ccc2[nH]c(-c3ccc(Oc4ccc(Cl)cc4)cc3)nc2c1
label_value: Not satisfied
//
molecule: Cc1cc(Nc2nc(-c3ccccc3)nc3ccccc23)n[nH]1
label_value: Not satisfied
//
molecule: O=C1Nc2ccccc2/C1=C1/Nc2ccccc2/C1=N\OCCC(O)CO (centres undefined)
label_value: Not satisfied
//
molecule: CC(C)n1cnc2/c(=N/c3cccc(Cl)c3)nc(NCCO)[nH]c21
label_value: Not satisfied
//
molecule: Cc1ccc(S(=O)(=O)/C=C/C#N)cc1
label_value: Satisfied
//
molecule: COc1ccc(C(=O)Nc2sc3c(c2C(N)=O)CCCC3)cc1OC
label_value: Satisfied
//
molecule: O=C1NC(=O)c2c1c1c3ccccc3[nH]c1c1[nH]c3cc(Br)ccc3c21
label_value: Not satisfied
//
molecule: O=c1c2ccccc2[nH]c(=S)n1CCN1CCC(=C(c2ccc(F)cc2)c2ccc(F)cc2)CC1
label_value: Satisfied
//
molecule: COc1cc2ncnc(N3CCN(C(=O)Nc4ccc(Oc5ccccc5)cc4)CC3)c2cc1OC
label_value: Satisfied
//
molecule: Nc1n[nH]c2nnc(-c3c(-c4ccccc4)nn4ccccc34)cc12
label_value: Satisfied
//
molecule: Cn1nc2c3c(cccc31)C(=O)c1ccccc1-2
label_value: Satisfied
//
molecule: COc1ccc(CNc2nc(N(CCO)CCO)nc3c2ncn3C(C)C)cc1
label_value: Not satisfied
//
molecule: O=C1NC(=O)c2cc(Nc3ccc(F)cc3)c(Nc3ccc(F)cc3)cc21
label_value: Satisfied
//
molecule: N#C/C(=C(\N)Sc1ccc(N)cc1)c1ccccc1C(F)(F)F
label_value: Satisfied
//
molecule: Nc1ccc2ncnc(NCCc3ccc(Oc4ccccc4)cc3)c2c1
label_value: Satisfied
//
molecule: Oc1ccc(Nc2nc(-c3ccc(Cl)cc3)cs2)cc1
label_value: Satisfied
